test: Clearance in Sprague-Dawley rat at 1 mg/kg, iv by LC/MS/MS analysis; assay type: ADME, organism-based; parameters: dose 1 mg/kg, route intravenous; conditions: in vivo
quantity_kind: clearance (mL/min/kg)

Sample answers from the record:
Cc1ccc(CN2CCOCC2)cc1NC(=O)c1ccc(Nc2nc(-c3ccccn3)c3cccn3n2)cc1    22
CS(=O)(=O)c1ccc(C(=O)Nc2ccc(Cl)c(-c3ccccn3)c2)c(Cl)c1    6.77

P = Cc1ccc(CN2CCOCC2)cc1NC(=O)c1ccc(Nc2nc(-c3ccc(OC(F)(F)F)cc3)c3cccn3n2)cc1
Q = Cc1ccc(CN2CCOCC2)cc1NC(=O)c1ccc(Nc2nc(-c3cnn(C)c3)c3cccn3n2)cc1
Task: # returns the entry with the larger clearance; inputs P and Q Field: selected label. Fill in the label of the entry you choose.
Output: Q

----------
assay: Elimination half life in Sprague-Dawley rat at 1 mg/kg, iv by LC/MS/MS analysis; type: ADME, organism-based; set-up: dose 1 mg/kg, route intravenous; details: in vivo, read-out: beta t1/2 (converted)
quantity_kind: half-life (h)

Sample answers from the record:
Cc1ccc(CN2CCOCC2)cc1NC(=O)c1ccc(Nc2nc(-c3ccccn3)c3cccn3n2)cc1    1.51
Cc1cccc(C)c1NC(=O)c1ccc(Nc2nc(-c3ccc(OC(F)(F)F)cc3)c3cccn3n2)cc1    15.2
Cc1ccc(CN2CCOCC2)cc1NC(=O)c1ccc(Nc2nc(-c3ccc(OC(F)(F)F)cc3)c3cccn3n2)cn1    8.34

a = CS(=O)(=O)c1ccc(C(=O)Nc2ccc(Cl)c(-c3ccccn3)c2)c(Cl)c1
b = Cc1ccc(CN2CCOCC2)cc1NC(=O)c1ccc(Nc2nc(-c3ccc(OC(F)(F)F)cc3)c3cccn3n2)cc1
Task: # returns the entry with the larger half-life; inputs a and b Field: selected label. Fill in the label of the entry you choose.
Output: b
(b: 8.86 h, a: 1.64 h)

----------
assay: Cmax in Sprague-Dawley rat at 1 mg/kg, iv by LC/MS/MS analysis; type: ADME, organism-based; parameters: dose 1 mg/kg, route intravenous; conditions: in vivo
quantity_kind: Cmax (ng/mL)

Sample answers from the record:
Cc1cccc(C)c1NC(=O)c1ccc(Nc2nc(-c3ccc(OC(F)(F)F)cc3)c3cccn3n2)cc1    2440
CS(=O)(=O)c1ccc(C(=O)Nc2ccc(Cl)c(-c3ccccn3)c2)c(Cl)c1    1250

a = Cc1ccc(CN2CCOCC2)cc1NC(=O)c1ccc(Nc2nc(-c3cnn(C)c3)c3cccn3n2)cc1
b = Cc1ccc(CN2CCOCC2)cc1NC(=O)c1ccc(Nc2nc(-c3ccc(OC(F)(F)F)cc3)c3cccn3n2)cc1
c = Cc1ccc(CN2CCOCC2)cc1NC(=O)c1ccc(Nc2nc(-c3ccccn3)c3cccn3n2)cc1
d = Cc1ccc(CN2CCOCC2)cc1NC(=O)c1ccc(Nc2nc(-c3ccc(OC(F)(F)F)cc3)c3cccn3n2)cn1
Task: Descending sort on Cmax required. Form field (ranking): labels in requested order.
Output: d, b, a, c

----------
assay: Apparent volume of distribution in Sprague-Dawley rat at 1 mg/kg, iv by LC/MS/MS analysis; assay type: ADME, organism-based; set-up: dose 1 mg/kg, route intravenous; details: in vivo, read-out: Vz
quantity_kind: Vd (L/kg)

Cc1ccc(CN2CCOCC2)cc1NC(=O)c1ccc(Nc2nc(-c3cnn(C)c3)c3cccn3n2)cc1    2.19
Cc1ccc(CN2CCOCC2)cc1NC(=O)c1ccc(Nc2nc(-c3ccc(OC(F)(F)F)cc3)c3cccn3n2)cc1    5.23

1 = Cc1ccc(CN2CCOCC2)cc1NC(=O)c1ccc(Nc2nc(-c3ccc(OC(F)(F)F)cc3)c3cccn3n2)cn1
2 = Cc1ccc(CN2CCOCC2)cc1NC(=O)c1ccc(Nc2nc(-c3ccccn3)c3cccn3n2)cc1
3 = Cc1cccc(C)c1NC(=O)c1ccc(Nc2nc(-c3ccc(OC(F)(F)F)cc3)c3cccn3n2)cc1
Task: Endpoint returns the given molecules ordered by ascending Vd. Form field (ranking): labels in requested order.
Output: 2, 1, 3
(2: 2.85 L/kg, 1: 5.97 L/kg, 3: 12.6 L/kg)

----------
experiment: Mean residence time (0 to t) in Sprague-Dawley rat at 1 mg/kg, iv by LC/MS/MS analysis; assay type: ADME, organism-based; set-up: dose 1 mg/kg, route intravenous; conditions: in vivo
quantity_kind: MRT last (h)

Cc1ccc(CN2CCOCC2)cc1NC(=O)c1ccc(Nc2nc(-c3ccc(OC(F)(F)F)cc3)c3cccn3n2)cn1    3.49
CS(=O)(=O)c1ccc(C(=O)Nc2ccc(Cl)c(-c3ccccn3)c2)c(Cl)c1    2.23
Cc1ccc(CN2CCOCC2)cc1NC(=O)c1ccc(Nc2nc(-c3ccccn3)c3cccn3n2)cc1    1.64
Cc1ccc(CN2CCOCC2)cc1NC(=O)c1ccc(Nc2nc(-c3ccc(OC(F)(F)F)cc3)c3cccn3n2)cc1    4.83

P = Cc1ccc(CN2CCOCC2)cc1NC(=O)c1ccc(Nc2nc(-c3cnn(C)c3)c3cccn3n2)cc1
Q = Cc1cccc(C)c1NC(=O)c1ccc(Nc2nc(-c3ccc(OC(F)(F)F)cc3)c3cccn3n2)cc1
Task: # returns the entry with the larger MRT last; inputs P and Q Field: selected label. Fill in the label of the entry you choose.
Output: Q

// provenance: ChEMBL document CHEMBL3112570
